# Tested on: Hepatotoxicity
# ASSAY: FDA HLAED, serum glutamic pyruvic transaminase (SGPT) increase
# CONDITION SET: human
RECORDED METRIC: SGPT Increase - Number of Reports

smiles_text=CC(=O)OCC(CCn1cnc2cnc(N)nc21)COC(C)=O assayed_system=Hepatotoxicity recorded_metric="SGPT Increase - Number of Reports" test_result="< 4"
smiles_text=COc1ccc2cc([C@H](C)C(=O)O)ccc2c1 assayed_system=Hepatotoxicity recorded_metric="SGPT Increase - Number of Reports" test_result="< 4"
smiles_text=NNC(=O)c1ccncc1 assayed_system=Hepatotoxicity recorded_metric="SGPT Increase - Number of Reports" test_result=">= 4"
smiles_text=CO[C@H]1/C=C/O[C@@]2(C)Oc3c(C)c(O)c4c(O)c(c(/C=N/N5CCN(C)CC5)c(O)c4c3C2=O)NC(=O)/C(C)=C\C=C\[C@H](C)[C@H](O)[C@@H](C)[C@@H](O)[C@@H](C)[C@H](OC(C)=O)[C@@H]1C assayed_system=Hepatotoxicity recorded_metric="SGPT Increase - Number of Reports" test_result=">= 4"

* * *

# System: Hepatotoxicity
# ASSAY: FDA HLAED, gamma-glutamyl transferase (GGT) increase
# CONDITION SET: human
RECORDED METRIC: GGT Increase - Number of Reports

compound=CCOC(=O)[C@H](CCc1ccccc1)N[C@@H](C)C(=O)N1CCC[C@H]1C(=O)O assayed_system=Hepatotoxicity recorded_metric="GGT Increase - Number of Reports" test_result=">= 4"
compound="CCC(=O)[C@@]1(C)[C@H](C)C[C@H]2[C@@H]3CCC4=CC(=O)C=C[C@]4(C)[C@H]3[C@@H](O)C[C@@]21C [RIMEXOLONE]" assayed_system=Hepatotoxicity recorded_metric="GGT Increase - Number of Reports" test_result="< 4"
compound="COc1cc([C@@H]2c3cc4c(cc3[C@@H](O[C@@H]3O[C@@H]5CO[C@@H](C)O[C@H]5[C@H](O)[C@H]3O)[C@H]3COC(=O)[C@H]23)OCO4)cc(OC)c1O [ETOPOSIDE]" assayed_system=Hepatotoxicity recorded_metric="GGT Increase - Number of Reports" test_result="< 4"
compound="CC(C)NCC(O)COc1ccc(COCCOC(C)C)cc1 (centres undefined)" assayed_system=Hepatotoxicity recorded_metric="GGT Increase - Number of Reports" test_result="< 4"

* * *

Reported values of Alkaline Phosphatase Increase - Index Value for individual entries
# Test system: Hepatotoxicity
# ASSAY: FDA HLAED, alkaline phosphatase increase
# CONDITION SET: human
Reply: number alone, nothing else.

Here are 3 compounds together with their reported answers.
smiles_text=c1ccc([C@H]2CN3CCSC3=N2)cc1 assayed_system=Hepatotoxicity test_result=38.3
smiles_text=CCOC(=O)[C@H](CCc1ccccc1)N[C@@H](C)C(=O)N1[C@H](C(=O)O)C[C@@H]2CCC[C@@H]21 assayed_system=Hepatotoxicity test_result=1.1
smiles_text=CC(C)(O/N=C(\C(=O)N[C@@H]1C(=O)N2C(C(=O)[O-])=C(C[n+]3ccccc3)CS[C@H]12)c1csc(N)n1)C(=O)O assayed_system=Hepatotoxicity test_result=0

Now look at this one.
Lab book: Alkaline Phosphatase Increase - Index Value of `CCCCc1oc2ccccc2c1C(=O)c1cc(I)c(OCCN(CC)CC)c(I)c1` noted as 0

* * *

# Test system: Hepatotoxicity
# ASSAY: FDA HLAED, serum glutamic pyruvic transaminase (SGPT) increase
# CONDITION SET: human
Assign Condition met whenever SGPT Increase - Index Value does not fall below 2; assign Condition not met whenever it does.

**Q:** // inclusive: SGPT Increase - Index Value at least 2? input: CCCCCCCCCCCCCCCCCC(=O)O.CC[C@H]1OC(=O)[C@H](C)[C@@H](O[C@H]2C[C@@](C)(OC)[C@@H](O)[C@H](C)O2)[C@H](C)[C@@H](O[C@@H]2O[C@H](C)C[C@H](N(C)C)[C@H]2OC(C)=O)[C@](C)(O)C[C@@H](C)C(=O)[C@H](C)[C@@H](O)[C@]1(C)O [ERYTHROMYCIN ACISTRATE]
**A:** Condition met

**Q:** Textbook exercise: given the entry `CC=CC1=C(C(=O)O)N2C(=O)[C@@H](NC(=O)[C@H](N)c3ccc(O)cc3)[C@H]2SC1` , state whether its SGPT Increase - Index Value is greater than or equal to 2.
**A:** Condition not met
